System: ICR mice
Assay: Acute toxicity experiment of single oral administration in mice
Assay type: in vivo
Conditions: Day 6; male; 1000 mg/Kg single oral dose
Outcome Measure: Daily Body Weight of Tested Male Mice (Mean ± SD) (g)

COCCCN1C(=O)CCC(N2C(=O)c3ccc(N)cc3C2=O)C1=O (centres unmarked) :: 29.0
COCCN1C(=O)CCC(N2C(=O)c3cccc(F)c3C2=O)C1=O (centres unmarked) :: 27.6
COCCN1C(=O)CCC(N2C(=O)c3cccc(C)c3C2=O)C1=O (centres unmarked) :: 28.1
COCCCN1C(=O)CCC(N2C(=O)c3cccc(F)c3C2=O)C1=O (centres unmarked) :: 28.1
C[S+]([O-])CCN1C(=O)CCC(N2C(=O)c3cccc(N)c3C2=O)C1=O (centres unmarked) :: 27.8
CCOCCN1C(=O)CCC(N2C(=O)c3cccc(F)c3C2=O)C1=O (centres unmarked) :: 29.0
CCOCCN1C(=O)CCC(N2C(=O)c3cccc(N)c3C2=O)C1=O (centres unmarked) :: 26.5
COCCCCN1C(=O)CCC(N2C(=O)c3cccc(N)c3C2=O)C1=O (centres unmarked) :: 27.1
CNc1cccc2c1C(=O)N(C1CCC(=O)N(CCOC)C1=O)C2=O (centres unmarked) :: 28.8
COCCN1C(=O)CCC(N2C(=O)c3cccc(O)c3C2=O)C1=O (centres unmarked) :: 28.1
COCCCN1C(=O)CCC(N2C(=O)c3cccc(N)c3C2=O)C1=O (centres unmarked) :: 28.3

---

Test system: ICR mice
Assay: Acute toxicity experiment of single oral administration in mice
Assay type: in vivo
Conditions: Day 2; female; 1000 mg/Kg single oral dose
Outcome Measure: Daily Body Weight of Tested Female Mice (Mean ± SD) (g)

COCCCN1C(=O)CCC(N2C(=O)c3cccc(N)c3C2=O)C1=O (stereo not shown) :: 21.9
COCCN1C(=O)CCC(N2C(=O)c3cccc(F)c3C2=O)C1=O (stereo not shown) :: 21.8
CCOCCN1C(=O)CCC(N2C(=O)c3cccc(F)c3C2=O)C1=O (stereo not shown) :: 21.6
Nc1cccc2c1C(=O)N(C1CCC(=O)N(CCO)C1=O)C2=O (stereo not shown) :: 21.5
COCCN1C(=O)CCC(N2C(=O)c3cccc(NC(C)=O)c3C2=O)C1=O (stereo not shown) :: 22.8
CS(=O)(=O)CCN1C(=O)CCC(N2C(=O)c3cccc(N)c3C2=O)C1=O (stereo not shown) :: 21.3
COCCCN1C(=O)CCC(N2C(=O)c3cccc(F)c3C2=O)C1=O (stereo not shown) :: 21.9

---

Test system: ICR mice
Assay: Acute toxicity experiment of single oral administration in mice
Type: in vivo
Details: Day 3; male; 1000 mg/Kg single oral dose
Outcome Measure: Daily Body Weight of Tested Male Mice (Mean ± SD)

COCCCN1C(=O)CCC(N2C(=O)c3cccc(F)c3C2=O)C1=O (stereo not shown) [Example 17] :: 24.6 ± 0.8 g
CS(=O)(=O)CCN1C(=O)CCC(N2C(=O)c3cccc(N)c3C2=O)C1=O (stereo not shown) [Example 13] :: 24.4 ± 0.9 g
CSCCN1C(=O)CCC(N2C(=O)c3cccc(N)c3C2=O)C1=O (stereo not shown) [Example 11] :: 25.4 ± 0.4 g
Nc1cccc2c1C(=O)N(C1CCC(=O)N(CCO)C1=O)C2=O (stereo not shown) [Example 6] :: 21.6 ± 1.3 g
COCCN1C(=O)CCC(N2C(=O)c3c(N)ccc(O)c3C2=O)C1=O (stereo not shown) [Example 10] :: 25.5 ± 0.9 g
CNc1cccc2c1C(=O)N(C1CCC(=O)N(CCOC)C1=O)C2=O (stereo not shown) [Example 2] :: 24.7 ± 0.2 g
COCCCCN1C(=O)CCC(N2C(=O)c3cccc(N)c3C2=O)C1=O (stereo not shown) [Example 22] :: 23.5 ± 0.9 g

Entry source: patent US11873287B2
